src = patent US5891917A

Target: FLK-1 receptor (Mus musculus, UniProt P35918)
Construct: expressed in transfected cells; host or cells: NIH3T3C7#3 cells (FLK-1 infected)
Assay: ELISA assay to measure kinase activity of FLK-1 receptor in FLK-1/NIH cells
Type: cell-based, murine
Settings: 50 ng/ml VEGF, read-out: ELISA DATA: FLK-1-(Cell.)
pIC50: −log10 of the molar value.
Measured pIC50 values are reported for all entries that follow.

CC(C)c1cc(/C=C(\C#N)S(=O)(=O)c2ccccn2)cc(C(C)C)c1O
< 4.30

Identify pIC50 associated with the compound Cc1cc(/C=C(\C#N)S(=O)(=O)c2ccccc2)cc(C)c1O
> 4.30

* * *

Measured IC50 values are reported for all entries that follow.
System: 3T3/IGF-1R cells
Assay: IGF-1 Receptor Growth Assay (3T3/IGF-1R)
Assay type: cell-based
Settings: read-out: Growth Data: 3T3/IGF-1R-10% FBS
Experimental: IGF-1 Receptor Growth Assay 3T3/IGF-1 R (10% FBS/2 mM glutamine/DMEM) Cell Plating--Trypsinize and count 3T3/IGF-1R and NIH 3T3 c7 cells. Dilute in growth media to 2000 cells/200 μl and seed flat bottom 96-well plates with 200 μl/well, one plate for two compounds for each cell line. Compound preparation--Add DMSO to each compound to make 100 mM stock solutions. Aliquot each compound to 3-4 sterile screw cap tubes and store at -20° C. […]
Give the value in µM but do not write µM after it.

Example molecules with recorded IC50:
CC(C)c1cc(/C=C(\C#N)S(=O)(=O)Cc2cccc(C(F)(F)F)c2)cc(C(C)C)c1O
74
CC(C)c1cc(/C=C(\C#N)S(=O)(=O)c2ccc(F)cc2)cc(C(C)C)c1O
91
CC(C)c1cc(/C=C(\C#N)S(=O)(=O)c2ccccc2)cc(C(C)C)c1O
92

Identify IC50 associated with the molecule CC(C)c1cc(/C=C(\C#N)S(=O)(=O)NCc2ccccc2)cc(C(C)C)c1O
79

* * *

Biological target: UniProt:P00533
Sequence (P00533 25-1210): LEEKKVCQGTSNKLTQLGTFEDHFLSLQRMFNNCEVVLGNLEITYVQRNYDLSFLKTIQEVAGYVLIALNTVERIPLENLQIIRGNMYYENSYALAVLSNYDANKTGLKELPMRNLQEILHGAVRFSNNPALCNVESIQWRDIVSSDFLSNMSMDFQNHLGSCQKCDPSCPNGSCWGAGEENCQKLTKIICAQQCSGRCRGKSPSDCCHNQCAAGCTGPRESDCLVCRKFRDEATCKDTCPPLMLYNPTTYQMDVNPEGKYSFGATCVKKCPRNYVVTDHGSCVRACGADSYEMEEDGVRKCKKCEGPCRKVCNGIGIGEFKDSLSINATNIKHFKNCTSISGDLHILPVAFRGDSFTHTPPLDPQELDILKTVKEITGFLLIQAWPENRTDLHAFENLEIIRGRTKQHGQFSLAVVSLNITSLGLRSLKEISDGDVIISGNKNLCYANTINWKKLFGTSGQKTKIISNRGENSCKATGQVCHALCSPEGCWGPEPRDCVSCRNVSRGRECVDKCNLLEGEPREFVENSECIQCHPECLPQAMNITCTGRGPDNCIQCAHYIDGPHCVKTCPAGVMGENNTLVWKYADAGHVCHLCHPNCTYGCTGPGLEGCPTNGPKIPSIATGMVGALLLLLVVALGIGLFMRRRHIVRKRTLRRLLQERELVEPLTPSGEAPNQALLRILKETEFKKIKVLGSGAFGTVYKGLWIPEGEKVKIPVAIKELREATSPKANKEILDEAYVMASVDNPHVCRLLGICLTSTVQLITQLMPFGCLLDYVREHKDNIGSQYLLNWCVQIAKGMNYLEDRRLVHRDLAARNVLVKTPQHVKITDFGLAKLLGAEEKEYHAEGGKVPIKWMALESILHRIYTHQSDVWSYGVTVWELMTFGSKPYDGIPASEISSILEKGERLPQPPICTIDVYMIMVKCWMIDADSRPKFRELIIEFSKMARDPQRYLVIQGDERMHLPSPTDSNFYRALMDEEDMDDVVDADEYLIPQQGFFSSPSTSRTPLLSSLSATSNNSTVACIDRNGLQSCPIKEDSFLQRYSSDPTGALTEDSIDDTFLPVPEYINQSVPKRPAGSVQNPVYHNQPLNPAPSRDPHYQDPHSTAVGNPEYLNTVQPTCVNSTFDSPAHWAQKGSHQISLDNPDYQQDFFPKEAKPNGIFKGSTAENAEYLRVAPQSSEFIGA
Test: EGFR Whole Cell Kinase Assay (ELISA)
Details: EGFR/C7 (NIH3T3) cells, 25 nM EGF
Procedure: The following examples illustrate the ability of the exemplary compounds to inhibit receptor tyrosine kinases, such as HER2 and/or EGFR. […] EGFR kinase activity (EGFR-3T3 assay) in whole cells was measured as described below: […]
pIC50: −log10 of the molar value.
Measured pIC50 values are reported for all entries that follow.

Example compounds with recorded pIC50:
CC(C)c1cc(/C=C(\C#N)S(=O)(=O)c2cccs2)cc(C(C)C)c1O
4.11
N#C/C(=C\c1ccc(O)cc1Cl)S(=O)(=O)NCCCc1ccccc1
< 4.00

Identify pIC50 associated with the compound N#C/C(=C\c1ccc(O)c(O)c1)S(=O)(=O)c1cccs1
< 4.00

Identify pIC50 associated with the compound CC(C)(C)c1cc(/C=C(\C#N)S(=O)(=O)c2ccsc2)cc(C(C)(C)C)c1O
< 4.00

* * *

Molecular target: HER2 (Homo sapiens)
Construct: a human breast tumor cell line which expresses high levels of HER2 kinase; endogenous in cells
Test: HER2-BT474 whole cell ELISA
Conditions: BT-474 cells
pIC50: −log10 of the molar value.
reportedEndpoint: pIC50

Example molecules with recorded pIC50:
N#C/C(=C\c1ccc(O)cc1Cl)S(=O)(=O)NCc1ccccc1
5.24
CC(C)c1cc(/C=C(\C#N)S(=O)(=O)Cc2cccc(C(F)(F)F)c2)cc(C(C)C)c1O
6.10
CC(C)c1cc(/C=C(\C#N)S(=O)(=O)c2cccs2)cc(C(C)C)c1O
6.00
CC(C)c1cc(/C=C(\C#N)S(=O)(=O)c2ccsc2)cc(C(C)C)c1O
5.89

(P) CC(C)(C)c1cc(/C=C(\C#N)S(=O)(=O)c2ccsc2)cc(C(C)(C)C)c1O
(Q) N#C/C(=C\c1ccc(O)cc1Cl)S(=O)(=O)NCCCc1ccccc1
Given P and given Q , which shows the smaller recorded pIC50? Could you answer with the label of the item you picked?
Q
(Q: 5.74, P: 6.52)

* * *

Tested on: 3T3/HER2 cells
Assay: 3T3 Growth Assay (3T3/HER2)
Assay type: cell-based
Conditions: read-out: Growth Data: 3T3/HER2 2% FBS
Measured IC50 values are reported for all entries that follow.
Give the value in µM but do not write µM after it.

Example compounds with recorded IC50:
CC(C)c1cc(/C=C(\C#N)S(=O)(=O)c2cccs2)cc(C(C)C)c1O [Compound 737]
40
CC(C)(C)c1cc(/C=C(\C#N)S(=O)(=O)c2ccc(F)cc2)cc(C(C)(C)C)c1O [Compound 740]
3.8
N#C/C(=C\c1ccc(O)cc1Cl)S(=O)(=O)NCCCc1ccccc1 [Compound 734]
55

Identify IC50 associated with the compound CC(C)c1cc(/C=C(\C#N)S(=O)(=O)NCc2ccccc2)cc(C(C)C)c1O [Compound 732]
15

Identify IC50 associated with the compound CC(C)(C)c1cc(/C=C(\C#N)S(=O)(=O)Cc2cccc(C(F)(F)F)c2)cc(C(C)(C)C)c1O [Compound 735]
5

* * *

Target: IGF-1R (Homo sapiens, UniProt P08069)
Sequence (P08069 741-1367 limits assumed): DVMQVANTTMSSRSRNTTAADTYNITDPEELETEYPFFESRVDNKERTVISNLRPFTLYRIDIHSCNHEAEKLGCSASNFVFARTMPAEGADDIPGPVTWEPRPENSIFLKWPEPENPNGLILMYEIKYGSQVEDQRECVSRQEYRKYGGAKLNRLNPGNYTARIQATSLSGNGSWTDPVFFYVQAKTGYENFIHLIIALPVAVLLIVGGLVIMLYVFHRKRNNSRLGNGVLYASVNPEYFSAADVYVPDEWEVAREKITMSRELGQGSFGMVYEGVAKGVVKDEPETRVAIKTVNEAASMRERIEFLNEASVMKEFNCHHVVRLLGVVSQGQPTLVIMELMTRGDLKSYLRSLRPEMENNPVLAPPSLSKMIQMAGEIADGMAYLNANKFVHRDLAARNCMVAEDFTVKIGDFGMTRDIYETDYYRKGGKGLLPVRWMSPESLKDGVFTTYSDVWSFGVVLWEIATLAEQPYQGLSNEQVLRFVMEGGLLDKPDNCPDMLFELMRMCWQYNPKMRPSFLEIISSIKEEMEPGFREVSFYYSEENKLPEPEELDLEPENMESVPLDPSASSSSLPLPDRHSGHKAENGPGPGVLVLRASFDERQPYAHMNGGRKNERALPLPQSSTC
Sequence (P08069 31-736 partner limits assumed): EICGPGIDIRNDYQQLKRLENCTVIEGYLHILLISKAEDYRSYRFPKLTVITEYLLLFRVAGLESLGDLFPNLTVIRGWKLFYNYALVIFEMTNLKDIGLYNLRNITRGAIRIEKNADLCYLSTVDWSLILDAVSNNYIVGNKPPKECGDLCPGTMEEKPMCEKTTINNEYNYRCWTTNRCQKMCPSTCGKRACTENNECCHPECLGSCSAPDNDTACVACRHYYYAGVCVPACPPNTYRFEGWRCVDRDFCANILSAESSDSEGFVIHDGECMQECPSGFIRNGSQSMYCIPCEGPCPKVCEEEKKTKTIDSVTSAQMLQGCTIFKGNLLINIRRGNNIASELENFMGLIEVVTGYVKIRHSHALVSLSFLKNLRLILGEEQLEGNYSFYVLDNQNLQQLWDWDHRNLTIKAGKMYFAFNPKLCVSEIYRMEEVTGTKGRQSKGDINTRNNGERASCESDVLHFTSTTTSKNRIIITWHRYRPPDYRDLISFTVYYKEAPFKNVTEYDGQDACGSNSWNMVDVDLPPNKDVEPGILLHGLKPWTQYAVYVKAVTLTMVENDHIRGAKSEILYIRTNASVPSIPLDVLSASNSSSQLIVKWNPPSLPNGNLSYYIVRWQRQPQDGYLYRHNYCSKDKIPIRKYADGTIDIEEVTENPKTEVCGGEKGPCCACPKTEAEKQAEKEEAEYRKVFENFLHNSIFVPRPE
Test: Cellular IGF-1 Receptor ELISA
Details: 3T3/IGF-1R cells, 20 nM IGF-1
pIC50: −log10 of the molar value.
reportedEndpoint: pIC50

Example compounds with recorded pIC50:
CC(C)c1cc(/C=C(\C#N)S(=O)(=O)/C(C#N)=C/c2cc(C(C)C)c(O)c(C(C)C)c2)cc(C(C)C)c1O
4.16
CC(C)c1cc(/C=C(\C#N)S(=O)(=O)c2cccs2)cc(C(C)C)c1O
4.03
CC(C)c1cc(/C=C(\C#N)S(=O)(=O)Cc2cccc(C(F)(F)F)c2)cc(C(C)C)c1O
4.72
CC(C)c1cc(/C=C(\C#N)S(=O)(=O)c2ccccc2)cc(C(C)C)c1O
4.53

(A) CC(C)c1cc(/C=C(\C#N)S(=O)(=O)NCc2ccccc2)cc(C(C)C)c1O
(B) N#C/C(=C\c1ccc(O)cc1Cl)S(=O)(=O)NCCCc1ccccc1
(C) CC(C)c1cc(/C=C(\C#N)S(=O)(=O)c2ccc(F)cc2)cc(C(C)C)c1O
Arrange these compounds by their pIC50, starting with the largest number. # format: label list in the order the request specifies
A, C, B

* * *

Tested on: 3T3/HER2 cells
Assay: 3T3 Growth Assay (3T3/HER2)
Format: cell-based
Details: read-out: Growth Data: 3T3/HER2 2% FBS
reportedEndpoint: pIC50
Please note pIC50 is a logarithmic value: minus log10 of concentration in mol/L. Answer with that number alone.

CC(C)c1cc(/C=C(\C#N)S(=O)(=O)Cc2cccc(C(F)(F)F)c2)cc(C(C)C)c1O
4.74
CC(C)c1cc(/C=C(\C#N)S(=O)(=O)c2ccccc2)cc(C(C)C)c1O
4.92
CC(C)c1cc(/C=C(\C#N)S(=O)(=O)c2ccc(F)cc2)cc(C(C)C)c1O
4.82

Identify pIC50 associated with the compound CC(C)c1cc(/C=C(\C#N)S(=O)(=O)c2ccsc2)cc(C(C)C)c1O
4.35

Identify pIC50 associated with the compound CC(C)(C)c1cc(/C=C(\C#N)S(=O)(=O)c2ccsc2)cc(C(C)(C)C)c1O
5.15

Identify pIC50 associated with the compound N#C/C(=C\c1ccc(O)cc1Cl)S(=O)(=O)NCc1ccccc1
4.22

Identify pIC50 associated with the compound CC(C)(C)c1cc(/C=C(\C#N)S(=O)(=O)c2cccs2)cc(C(C)(C)C)c1O
5.15

* * *

Target: Insulin Receptor (Homo sapiens, UniProt P06213)
Sequence (P06213 763-1382 limits assumed, species assumed): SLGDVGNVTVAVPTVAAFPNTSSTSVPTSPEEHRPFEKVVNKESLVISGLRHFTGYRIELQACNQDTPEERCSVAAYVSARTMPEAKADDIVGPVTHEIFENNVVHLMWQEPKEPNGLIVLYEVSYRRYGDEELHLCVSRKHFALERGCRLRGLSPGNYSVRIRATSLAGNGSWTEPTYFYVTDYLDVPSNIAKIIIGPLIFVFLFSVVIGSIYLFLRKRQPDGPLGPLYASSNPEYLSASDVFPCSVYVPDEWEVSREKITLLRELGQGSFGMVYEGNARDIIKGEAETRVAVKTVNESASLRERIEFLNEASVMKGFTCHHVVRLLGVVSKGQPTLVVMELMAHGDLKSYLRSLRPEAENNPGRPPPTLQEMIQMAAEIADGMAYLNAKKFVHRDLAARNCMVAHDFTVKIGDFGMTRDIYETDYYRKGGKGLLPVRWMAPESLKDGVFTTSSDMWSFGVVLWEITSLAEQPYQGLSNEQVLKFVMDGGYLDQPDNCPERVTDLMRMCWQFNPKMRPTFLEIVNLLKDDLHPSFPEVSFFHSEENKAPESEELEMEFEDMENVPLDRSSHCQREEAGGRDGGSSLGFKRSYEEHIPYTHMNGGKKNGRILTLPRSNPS
Sequence (P06213 28-758 partner limits assumed, species assumed): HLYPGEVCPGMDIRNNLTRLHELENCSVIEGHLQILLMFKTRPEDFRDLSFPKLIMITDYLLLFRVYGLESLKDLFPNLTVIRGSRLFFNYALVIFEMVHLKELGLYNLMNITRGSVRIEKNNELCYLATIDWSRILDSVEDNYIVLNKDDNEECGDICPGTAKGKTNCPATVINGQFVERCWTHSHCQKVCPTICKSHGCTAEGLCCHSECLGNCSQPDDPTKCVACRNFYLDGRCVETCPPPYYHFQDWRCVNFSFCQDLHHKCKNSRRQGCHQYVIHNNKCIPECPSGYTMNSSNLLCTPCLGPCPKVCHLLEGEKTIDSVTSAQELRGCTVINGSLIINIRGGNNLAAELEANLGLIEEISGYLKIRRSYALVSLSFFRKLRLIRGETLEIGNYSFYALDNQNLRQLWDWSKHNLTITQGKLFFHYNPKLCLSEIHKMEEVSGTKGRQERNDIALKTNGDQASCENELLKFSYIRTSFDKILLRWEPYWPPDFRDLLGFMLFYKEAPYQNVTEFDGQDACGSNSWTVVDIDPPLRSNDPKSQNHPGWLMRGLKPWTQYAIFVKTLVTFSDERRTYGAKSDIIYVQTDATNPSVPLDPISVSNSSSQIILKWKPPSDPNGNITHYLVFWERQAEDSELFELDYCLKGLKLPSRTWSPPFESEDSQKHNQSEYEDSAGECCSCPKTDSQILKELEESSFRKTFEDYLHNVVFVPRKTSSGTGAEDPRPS
Assay: Cellular Insulin Receptor ELISA
Conditions: H25 cells, 100 nM insulin; read-out: ELISA DATA: IR
pIC50: −log10 of the molar value.
reportedEndpoint: pIC50

Example molecules with recorded pIC50:
CC(C)c1cc(/C=C(\C#N)S(=O)(=O)NCc2ccccc2)cc(C(C)C)c1O [Compound 732]
5.06
N#C/C(=C\c1ccc(O)cc1Cl)S(=O)(=O)NCCCc1ccccc1 [Compound 734]
4.29
CC(C)c1cc(/C=C(\C#N)S(=O)(=O)Cc2cccc(C(F)(F)F)c2)cc(C(C)C)c1O [Compound 736]
4.82
CC(C)c1cc(/C=C(\C#N)S(=O)(=O)c2ccc(F)cc2)cc(C(C)C)c1O [Compound 741]
5.04

(A) CC(C)c1cc(/C=C(\C#N)S(=O)(=O)c2ccccc2)cc(C(C)C)c1O [Compound 731]
(B) CC(C)c1cc(/C=C(\C#N)S(=O)(=O)/C(C#N)=C/c2cc(C(C)C)c(O)c(C(C)C)c2)cc(C(C)C)c1O [Compound 745]
Given A and given B , which shows the smaller recorded pIC50? Could you answer with the label of the item you picked?
B

* * *

Molecular target: PDGFR-beta (Homo sapiens)
Construct: the human glioblastoma line U1242 that expresses PDGFR-beta; endogenous in cells
Sequence (P09619 33-1106): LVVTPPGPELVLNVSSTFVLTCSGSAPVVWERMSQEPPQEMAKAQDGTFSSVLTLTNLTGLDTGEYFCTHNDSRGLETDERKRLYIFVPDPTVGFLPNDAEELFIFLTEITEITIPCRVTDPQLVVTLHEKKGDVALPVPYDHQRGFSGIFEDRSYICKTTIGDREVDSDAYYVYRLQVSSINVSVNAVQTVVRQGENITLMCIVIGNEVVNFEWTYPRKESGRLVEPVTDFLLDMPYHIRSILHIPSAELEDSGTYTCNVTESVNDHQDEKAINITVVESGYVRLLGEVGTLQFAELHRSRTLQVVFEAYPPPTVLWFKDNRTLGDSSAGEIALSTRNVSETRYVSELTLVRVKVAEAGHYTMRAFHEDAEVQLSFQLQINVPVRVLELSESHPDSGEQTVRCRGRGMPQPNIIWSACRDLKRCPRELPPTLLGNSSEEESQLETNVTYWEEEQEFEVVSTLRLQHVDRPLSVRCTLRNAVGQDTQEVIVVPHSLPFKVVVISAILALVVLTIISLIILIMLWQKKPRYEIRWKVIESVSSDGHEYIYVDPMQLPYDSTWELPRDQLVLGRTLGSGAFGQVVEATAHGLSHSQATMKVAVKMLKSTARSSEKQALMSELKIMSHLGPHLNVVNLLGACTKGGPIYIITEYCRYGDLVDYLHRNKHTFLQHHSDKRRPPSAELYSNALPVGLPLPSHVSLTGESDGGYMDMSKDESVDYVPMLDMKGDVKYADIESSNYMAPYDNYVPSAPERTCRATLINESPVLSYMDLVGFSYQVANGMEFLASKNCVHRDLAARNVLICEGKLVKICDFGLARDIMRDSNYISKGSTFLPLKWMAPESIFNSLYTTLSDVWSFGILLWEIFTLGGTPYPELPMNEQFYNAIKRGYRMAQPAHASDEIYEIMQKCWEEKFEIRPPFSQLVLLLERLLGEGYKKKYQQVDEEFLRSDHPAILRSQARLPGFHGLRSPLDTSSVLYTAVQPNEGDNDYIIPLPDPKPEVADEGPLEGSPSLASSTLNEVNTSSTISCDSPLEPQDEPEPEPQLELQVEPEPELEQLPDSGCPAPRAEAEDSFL
Assay: PDGF-R Cellular Assay (ELISA)
Conditions: U1242 MG cells, 100 ng/ml PDGF-BB
reportedEndpoint: IC50

N#C/C(=C\c1ccc(O)c(O)c1)S(=O)(=O)c1cccs1
> 100 µM

Identify IC50 associated with the compound N#C/C(=C\c1ccc(O)cc1Cl)S(=O)(=O)NCCCc1ccccc1
> 50 µM

Identify IC50 associated with the compound Cc1cc(/C=C(\C#N)S(=O)(=O)Cc2cccc(C(F)(F)F)c2)cc(C)c1O
> 100 µM

Identify IC50 associated with the compound CC(C)(C)c1cc(/C=C(\C#N)S(=O)(=O)Cc2cccc(C(F)(F)F)c2)cc(C(C)(C)C)c1O
> 100 µM

Identify IC50 associated with the compound CC(C)(C)c1cc(/C=C(\C#N)S(=O)(=O)c2ccc(F)cc2)cc(C(C)(C)C)c1O
> 100 µM

Identify IC50 associated with the compound Cc1cc(/C=C(\C#N)S(=O)(=O)c2ccccc2)cc(C)c1O
> 100 µM

Identify IC50 associated with the compound CC(C)c1cc(/C=C(\C#N)S(=O)(=O)c2ccc(F)cc2)cc(C(C)C)c1O
> 100 µM

Identify IC50 associated with the compound Cc1cc(/C=C(\C#N)S(=O)(=O)c2ccc(F)cc2)cc(C)c1O
> 100 µM

Identify IC50 associated with the compound CC(C)c1cc(/C=C(\C#N)S(=O)(=O)c2ccsc2)cc(C(C)C)c1O
> 100 µM

Identify IC50 associated with the compound CC(C)(C)c1cc(/C=C(\C#N)S(=O)(=O)c2ccsc2)cc(C(C)(C)C)c1O
> 100 µM

Identify IC50 associated with the compound CC(C)c1cc(/C=C(\C#N)S(=O)(=O)c2cccs2)cc(C(C)C)c1O
> 100 µM

Identify IC50 associated with the compound N#C/C(=C\c1ccc(O)cc1Cl)S(=O)(=O)NCc1ccccc1
> 50 µM

Identify IC50 associated with the compound CC(C)(C)c1cc(/C=C(\C#N)S(=O)(=O)c2cccs2)cc(C(C)(C)C)c1O
> 100 µM

Identify IC50 associated with the compound CC(C)c1cc(/C=C(\C#N)S(=O)(=O)c2ccccc2)cc(C(C)C)c1O
> 50 µM

Identify IC50 associated with the compound CC(C)c1cc(/C=C(\C#N)S(=O)(=O)NCc2ccccc2)cc(C(C)C)c1O
50 µM

Identify IC50 associated with the compound CC(C)c1cc(/C=C(\C#N)S(=O)(=O)Cc2cccc(C(F)(F)F)c2)cc(C(C)C)c1O
> 100 µM

Identify IC50 associated with the compound CC(C)c1cc(/C=C(\C#N)S(=O)(=O)c2ccccn2)cc(C(C)C)c1O
> 50 µM
